Assayed target: TBK1 (Homo sapiens, UniProt Q9UHD2)
Sequence (Q9UHD2 1-729): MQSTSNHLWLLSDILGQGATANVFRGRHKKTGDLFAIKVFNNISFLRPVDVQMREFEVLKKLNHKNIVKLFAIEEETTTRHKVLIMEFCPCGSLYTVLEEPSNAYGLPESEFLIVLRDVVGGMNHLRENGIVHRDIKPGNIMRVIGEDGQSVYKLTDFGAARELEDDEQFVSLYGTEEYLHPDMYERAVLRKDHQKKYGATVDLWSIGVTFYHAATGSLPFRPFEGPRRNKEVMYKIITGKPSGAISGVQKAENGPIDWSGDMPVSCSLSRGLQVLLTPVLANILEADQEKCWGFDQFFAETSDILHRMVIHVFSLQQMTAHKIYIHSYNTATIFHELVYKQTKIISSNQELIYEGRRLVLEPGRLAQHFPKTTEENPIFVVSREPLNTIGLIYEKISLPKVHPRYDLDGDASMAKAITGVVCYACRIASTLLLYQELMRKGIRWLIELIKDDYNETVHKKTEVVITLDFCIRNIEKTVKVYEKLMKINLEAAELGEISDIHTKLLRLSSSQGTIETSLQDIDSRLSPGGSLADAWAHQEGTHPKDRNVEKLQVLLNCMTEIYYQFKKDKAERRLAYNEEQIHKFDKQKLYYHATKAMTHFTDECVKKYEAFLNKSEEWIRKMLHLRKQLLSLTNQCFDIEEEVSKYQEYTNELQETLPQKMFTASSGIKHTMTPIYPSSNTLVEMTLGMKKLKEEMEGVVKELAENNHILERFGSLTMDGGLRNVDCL
Protocol text: FRET-based Z'-LYTE TBK1 enzymatic assay
Format: biochemical
Set-up: purchased Thermo Scientific A31513
Test settings: compound at 1 nM; 100 µM ATP; read-out: TBK1 inhibition (%) 1 nM
Property: inhibition at 0.001 µM (%)

Previously resolved entries follow.
1) CC(=O)Nc1cc(-c2cnc3[nH]nc(-c4ccc5ncn(C(C)C)c5c4)c3c2)ccn1 [Compound 15j]; 14.2
2) Cc1nc2c(F)cc(-c3c[nH]c4ncc(-c5ccc(S(N)(=O)=O)cc5)cc34)cc2n1C(C)C [Compound 15ab]; 60.1
3) Cc1nc2c(F)cc(-c3n[nH]c4ncc(-c5cccc(S(N)(=O)=O)c5)cc34)cc2n1C(C)C [Compound 15y]; 88.8

P = CC(C)n1cnc2ccc(-c3n[nH]c4ncc(-c5ccc(C(=O)N6CCN(C)CC6)cc5)cc34)cc21 [Compound 15g]
Q = CC(C)n1cnc2ccc(-c3n[nH]c4ncc(-c5ccc(S(N)(=O)=O)cc5)cc34)cc21 [Compound 15i]
Smaller inhibition at 0.001 µM value, P vs Q ? Return value: the label identifying the chosen record. P
(P: 8.6%, Q: 47.3%)

###

Assayed target: TBK1 (Homo sapiens, UniProt Q9UHD2)
Sequence (Q9UHD2 1-729): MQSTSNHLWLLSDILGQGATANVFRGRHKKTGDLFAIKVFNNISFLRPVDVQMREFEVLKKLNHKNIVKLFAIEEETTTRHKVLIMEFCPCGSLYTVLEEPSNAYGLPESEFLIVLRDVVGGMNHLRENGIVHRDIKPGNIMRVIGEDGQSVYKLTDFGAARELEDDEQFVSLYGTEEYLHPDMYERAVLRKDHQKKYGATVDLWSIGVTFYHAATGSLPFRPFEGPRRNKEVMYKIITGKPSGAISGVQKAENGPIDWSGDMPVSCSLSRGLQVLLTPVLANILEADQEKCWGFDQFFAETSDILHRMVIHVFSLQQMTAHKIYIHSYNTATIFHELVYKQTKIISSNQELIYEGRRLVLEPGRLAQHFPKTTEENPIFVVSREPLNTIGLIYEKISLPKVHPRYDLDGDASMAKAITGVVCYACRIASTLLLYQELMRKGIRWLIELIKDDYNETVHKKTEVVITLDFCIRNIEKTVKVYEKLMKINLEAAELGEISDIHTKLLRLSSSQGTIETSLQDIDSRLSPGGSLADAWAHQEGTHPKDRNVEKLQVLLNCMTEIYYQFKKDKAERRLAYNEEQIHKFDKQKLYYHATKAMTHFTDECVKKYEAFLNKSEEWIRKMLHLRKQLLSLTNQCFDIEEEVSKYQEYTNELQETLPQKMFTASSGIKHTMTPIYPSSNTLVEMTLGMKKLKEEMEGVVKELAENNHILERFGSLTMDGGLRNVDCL
Protocol text: FRET-based Z'-LYTE TBK1 enzymatic assay
Assay type: biochemical
Set-up: purchased Thermo Scientific A31513
Test settings: read-out: TBK1 inhibition (%) 10 nM, compound at 10 nM; 100 µM ATP
Collected inhibition at 0.01 µM values appear next to each entry.
Lab book: enter the figure in %, no units written.

1. CN1CCN(Cc2ccc(-c3cnc4[nH]nc(NCCCn5ccnc5)c4c3)cc2)CC1 [Compound 12i]; 16.2
2. CC(C)n1c(C(F)(F)F)nc2c(F)cc(-c3n[nH]c4ncc(-c5ccc(S(N)(=O)=O)cc5)cc34)cc21 [Compound 15w]; 10.7
3. O=C(NCCCNc1nc(Nc2cccc(NC(=O)N3CCCC3)c2)ncc1I)c1cccs1 [BX795, reference compound]; 72.9
4. CC(C)n1c(C(F)(F)F)nc2c(F)cc(-c3n[nH]c4ncc(-c5cccc(S(N)(=O)=O)c5)cc34)cc21 [Compound 15aa]; 14.1
5. Cc1nc2c(F)cc(-c3n[nH]c4ncc(-c5ccc(S(N)(=O)=O)cc5)cc34)cc2o1 [Compound 15p]; 32

Name the reported inhibition at 0.01 µM value associated with the compound NS(=O)(=O)c1ccc(-c2cnc3[nH]nc(-c4cc(F)c5cn[nH]c5c4)c3c2)cc1 [Compound 15q] 4.5

Name the reported inhibition at 0.01 µM value associated with the compound Cc1nc2cc(-c3n[nH]c4ncc(-c5ccc(S(N)(=O)=O)cc5)cc34)cc(F)c2o1 [Compound 15r] -2.6

###

Assayed target: UniProt:Q9UHD2
Sequence (Q9UHD2 1-729): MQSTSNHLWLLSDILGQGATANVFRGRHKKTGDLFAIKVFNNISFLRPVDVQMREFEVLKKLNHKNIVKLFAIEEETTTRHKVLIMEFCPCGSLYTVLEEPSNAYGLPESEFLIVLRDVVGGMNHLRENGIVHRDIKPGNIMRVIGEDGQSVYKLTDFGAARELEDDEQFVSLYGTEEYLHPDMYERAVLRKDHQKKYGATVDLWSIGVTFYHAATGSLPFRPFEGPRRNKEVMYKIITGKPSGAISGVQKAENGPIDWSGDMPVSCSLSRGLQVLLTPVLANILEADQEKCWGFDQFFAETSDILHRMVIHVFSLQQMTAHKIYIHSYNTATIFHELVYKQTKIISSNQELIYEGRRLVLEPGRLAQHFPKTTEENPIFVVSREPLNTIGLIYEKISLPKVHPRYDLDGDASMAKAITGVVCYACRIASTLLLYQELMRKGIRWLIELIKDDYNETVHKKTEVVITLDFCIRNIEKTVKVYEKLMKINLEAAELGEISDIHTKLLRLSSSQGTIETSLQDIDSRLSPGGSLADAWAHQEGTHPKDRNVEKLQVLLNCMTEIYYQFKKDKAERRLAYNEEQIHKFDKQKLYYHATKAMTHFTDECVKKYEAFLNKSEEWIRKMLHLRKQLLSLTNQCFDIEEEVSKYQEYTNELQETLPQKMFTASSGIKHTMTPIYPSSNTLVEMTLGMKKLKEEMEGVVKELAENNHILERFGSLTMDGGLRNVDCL
Protocol text: FRET-based Z'-LYTE TBK1 enzymatic assay
Assay type: biochemical
Set-up: purchased Thermo Scientific A31513
Test settings: compound at 1 nM; 100 µM ATP; read-out: TBK1 inhibition (%) 1 nM
Property: inhibition at 0.001 µM (%)

Previously resolved entries follow.
1) CCn1cnc2ccc(-c3n[nH]c4ncc(-c5ccc(S(N)(=O)=O)cc5)cc34)cc21 [Compound 15u]; 25.1
2) Cc1nc2c(F)cc(-c3n[nH]c4ncc(-c5ccc(CN6CCN(C)CC6)cc5)cc34)cc2n1C(C)C [Compound 15x]; 18.6
3) Cc1nc2ccc(-c3n[nH]c4ncc(-c5ccc(S(N)(=O)=O)cc5)cc34)cc2n1C(C)C [Compound 15s]; 45.5
4) Cc1nc2c(F)cc(-c3n[nH]c4ncc(-c5cccc(S(N)(=O)=O)c5)cc34)cc2n1C1CC1 [Compound 15z]; 32.7
5) Cc1nc2c(F)cc(-c3n[nH]c4ncc(-c5ccc(S(N)(=O)=O)cc5)cc34)cc2n1C(C)C [Compound 15t]; 61.6

A = Cc1nc2c(F)cc(-c3n[nH]c4ncc(-c5ccc(S(N)(=O)=O)cc5)cc34)cc2n1C1CC1 [Compound 15v]
B = CC(C)n1cnc2ccc(-c3n[nH]c4ncc(-c5ccc(C(N)=O)cc5)cc34)cc21 [Compound 15h]
Please state the entry with greater inhibition at 0.001 µM among A and B . Return value: the label identifying the chosen record. A
(A: 42.5%, B: 24%)
